TARGET: human mGlu4 receptor (Homo sapiens (Human), UniProt Q14833)
Sequence (Q14833 33-912): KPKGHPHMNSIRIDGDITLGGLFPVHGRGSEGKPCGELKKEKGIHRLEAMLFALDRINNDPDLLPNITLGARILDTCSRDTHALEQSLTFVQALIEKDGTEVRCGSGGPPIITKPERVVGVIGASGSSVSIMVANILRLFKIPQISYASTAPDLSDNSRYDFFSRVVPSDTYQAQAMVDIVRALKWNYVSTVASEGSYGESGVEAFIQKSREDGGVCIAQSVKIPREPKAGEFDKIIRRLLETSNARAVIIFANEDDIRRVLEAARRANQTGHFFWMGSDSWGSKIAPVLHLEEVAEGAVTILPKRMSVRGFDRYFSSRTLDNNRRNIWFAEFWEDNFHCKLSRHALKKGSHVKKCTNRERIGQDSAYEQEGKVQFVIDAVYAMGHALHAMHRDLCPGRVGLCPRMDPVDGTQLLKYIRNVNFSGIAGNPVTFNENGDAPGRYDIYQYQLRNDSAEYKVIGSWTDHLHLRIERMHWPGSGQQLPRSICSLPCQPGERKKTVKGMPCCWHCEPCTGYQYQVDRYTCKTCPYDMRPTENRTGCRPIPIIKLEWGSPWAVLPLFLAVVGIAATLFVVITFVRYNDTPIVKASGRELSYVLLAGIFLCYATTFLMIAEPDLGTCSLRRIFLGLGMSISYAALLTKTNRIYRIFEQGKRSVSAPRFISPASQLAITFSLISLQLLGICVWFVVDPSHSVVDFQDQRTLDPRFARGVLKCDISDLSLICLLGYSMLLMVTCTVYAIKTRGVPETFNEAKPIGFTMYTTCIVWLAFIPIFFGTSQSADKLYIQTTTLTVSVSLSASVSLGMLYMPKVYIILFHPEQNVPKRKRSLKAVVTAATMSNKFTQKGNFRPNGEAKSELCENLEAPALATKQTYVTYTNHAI
PROTOCOL_DESCRIPTION: Intracellular Ca2+ mobilization assay (FLIPR), mGlu4 NAM
STATED_CONDITIONS: HEK-293 cells stably transfected with human mGlu4; inhibition of L-AP4 (EC80) response; IC50
Measured EC50, listed per entry.
Numeric only. Scale: µM

EC50 lookup needed for O=S(=O)(Nc1c(F)cc(C#Cc2cncc(F)c2)cc1F)c1ccccc1Cl , thanks.
2.96

EC50 lookup needed for COc1c(F)cccc1S(=O)(=O)Nc1c(F)cc(C#Cc2ccccc2)cc1F , thanks.
2.11

EC50 lookup needed for COc1c(Cl)cccc1S(=O)(=O)Nc1c(F)cc(C#Cc2cncc(F)c2)cc1F , thanks.
0.778

EC50 lookup needed for O=S(=O)(Nc1c(F)cc(C#Cc2ccccc2)cc1F)c1cccc2ncoc12 , thanks.
6.56
